# measurement description: growth suppression of beta-catenin knockout HCT116, pilot screen, human colon tumor cells (AID 823);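 note: 0% = wells killed by 20 µM Hyamine and 100% = untreated DMSO cell wells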
# reported conditions: CellTiter-Glo, 60 h, at 10 µM, active compounds read low
Inconclusive results are not listed.
measured property: viability (%)
One number for each entry, in %.

Illustrative cases are given below, each with its answer.
I am curious: what viability value has been reported for Cc1cc(C)n(-c2nc3ccccc3c3nc(C)nn23)n1 ? 104

I am curious: what viability value has been reported for O=C(C1CCC(CNc2c(N3CCCCC3)c(=O)c2=O)CC1)N1CCCCC1 (stereo unspecified) ? 94.3

I am curious: what viability value has been reported for O=C(c1ccccc1)N1CCn2c(nc3ccccc32)C1 ? 98.2

I am curious: what viability value has been reported for CCOc1ccc(N(CC(=O)Nc2ccc(C)cc2)S(=O)(=O)c2c(C)noc2C)cc1 ? 79.4

Dear reader, for each entry below, please note its viability.
1. CC(=O)Nc1ccc(C(=O)c2ccccc2)cc1
2. Cc1oc2c(c(=O)c1C)C(=O)CC(c1ccccc1)C2 (stereo unspecified)
3. Cc1ccc(S(=O)(=O)N(C)Cc2nc(-c3ccc(Br)cc3)no2)cc1
4. CCOC(=O)C(C)n1cnc2sc3c(c2c1=O)CCC3 (stereo unspecified)
5. O=S(=O)(c1cccc(-n2cnnn2)c1)N1CCOCC1
6. Cn1c(NCc2ccccc2Cl)nc2ccccc21
7. O=C(O)CC1SC(=Nc2ccccc2)N(c2ccccc2)C1=O (stereo unspecified)
8. COc1ccc(C2C(C(=O)N3CCCCC3)c3ccccc3C(=O)N2C)cc1 (stereo unspecified)

95.4
88.5
89.5
95.7
94.3
97.5
98.1
92.3

Dear reader, for each entry below, please note its viability.
1. O=C1c2oc3ccc(F)cc3c(=O)c2C(c2ccc(F)cc2)N1CCCN1CCOCC1 (stereo unspecified)
2. CC1NC(=O)NC1CCCCC(=O)O (stereo unspecified)
3. Cn1c(Cn2c(=O)sc3ccccc32)nnc1SCC(=O)N1CCN(c2ccccc2)CC1
4. CSc1ncccc1C(=O)OCC(=O)c1cc2ccccc2o1
5. O=C(Nc1ccc(S(=O)(=O)N2CCCCCC2)cc1)c1ccc(Br)o1
6. COc1cccc(N2C(=O)C3ON(c4ccccc4)C(c4cccs4)C3C2=O)c1 (stereo unspecified)
7. C=CCN(C(=O)CN1CCOCC1)c1nc(C)c(-c2ccccc2)s1
8. CC1CCN(CC(O)COc2ccc(F)cc2)CC1 (stereo unspecified)

[106, 109, 100, 85, 69.6, 107, 91.9, 96.4]

Dear reader, for each entry below, please note its viability.
1. CCOc1ccccc1Nc1nnc(Cc2ccccc2Cl)c(=O)[nH]1
2. COc1ccc(N2CC(C(=O)NC3CC(C)(C)NC(C)(C)C3)CC2=O)cc1 (stereo unspecified)
3. COCCNC(=O)COc1ccccc1Cl
4. CC(=O)NC(CCS(C)(=O)=O)C(=O)Nc1cccc(Cl)c1Cl (stereo unspecified)

90.7
99.8
95.4
101

Dear reader, for each entry below, please note its viability.
1. COC(=O)c1ccc(C2c3c(n[nH]c3C)C(=O)N2c2ccc(C)cc2)cc1 (stereo unspecified)
2. CCOc1cccc(=O)c2c(C)n(CC3CCCO3)c(C)c12 (stereo unspecified)
3. CCC(=O)Nc1ccc(C(=O)c2ccccc2)cc1

1. 70.6
2. 92.5
3. 98.5

Dear reader, for each entry below, please note its viability.
1. O=C(CSc1nnc(-c2ccccc2)o1)Nc1ccccc1F
2. CCOCCCNC(=O)CCCn1nc(C)n2c(cc3sccc32)c1=O
3. COC(=O)C1=C(C)N(C)C(C)=C(C(=O)OC)C1c1ccccc1C
4. CC12CN3CC(C)(CN(C1)C3c1ccc3ccccc3c1O)C2=O (stereo unspecified)
5. COc1ccc(N2Cc3cccc(C(=O)NC(C)CCc4ccco4)c3C2=O)cc1 (stereo unspecified)
6. CCCc1cc(C(=O)NCc2ccc(OC)cc2)no1
7. COc1ccccc1NC(=O)CSc1nc2sc(C)c(C)c2c(=O)n1Cc1ccco1
8. CCOC(=O)c1sc(NC(=O)c2ccc(Cl)s2)cc1C

37.7
108
94.6
101
95.3
107
91
105

Dear reader, for each entry below, please note its viability.
1. COc1ccccc1-c1nnc(NC(=O)C(C)SC2=NCCS2)s1 (stereo unspecified)
2. O=C(C1CC(c2ccc(F)cc2)=NO1)N1CCN(c2ccccc2)CC1 (stereo unspecified)

83.4
99.1

Dear reader, for each entry below, please note its viability.
1. c1ccc(-c2ccc(-c3nc(-c4cccnc4)no3)cc2)cc1
2. CC(C)Cn1c(CNC(=O)c2ccccc2)nc2ccccc21
3. O=C(Nc1ccccc1Oc1ccccc1)C1CC1
4. CC1=C(C(=O)OCC(C)C)C(c2ccccc2Cl)NC(=O)N1C (stereo unspecified)
5. C=C(C)CSc1nnc(-c2cc(OC)c(OC)c(OC)c2)n1N
6. COc1ccccc1CNC(=O)c1ccc(CNc2c(N3CCCC3)c(=O)c2=O)cc1

[80.8, 99.6, 89.5, 58.5, 95.2, 98.8]

Dear reader, for each entry below, please note its viability.
1. COc1ccc(Cc2nnc(-c3cccc(C)c3)o2)cc1OC
2. COc1cccc(C2NC(C)(C(=O)O)C3C(=O)N(C(C)C)C(=O)C23)c1O (stereo unspecified)
3. COc1cccc(N2CCN(C(=O)CN(C)S(=O)(=O)c3ccc4c(c3)CCC(=O)N4)CC2)c1

95.4
91.5
87.6
